Every entry's value here was drawn from ChEMBL document CHEMBL1614632.

- experimental-details: clinical
- details: human, in vivo, iv, t1/2
Task for the reader: assign each of the following compounds its reported half-life.
One number for each entry, in h.

In [3]: df
Out[3]:
                                   compound  metric_name  unit  reported_value
0  CC1(C)S[C@@H]2[C@H](NC(=O)[C@H](NC(=O)N3CCNC3=O)c3ccccc3)C(=O)N2[C@H]1C(=O)O [AZLOCILLIN]    half-life     h             1.2

Look at each compound and report its half-life.
1. CC(C(=O)O)c1ccc(C(=O)c2cccs2)cc1 (stereo unspecified) [SUPROFEN]
2. C#CCN(C)[C@H](C)Cc1ccccc1 [SELEGILINE]
3. COc1ccccc1N1CCN(CCCNc2cc(=O)n(C)c(=O)n2C)CC1
4. C/C=C1\NC(=O)[C@H]2CSSCC/C=C/[C@H](CC(=O)N[C@H](C(C)C)C(=O)N2)OC(=O)[C@H](C(C)C)NC1=O [ROMIDEPSIN]

1: 2.1; 2: 1.3; 3: 3.5; 4: 11

For the compound shown here, CN/C(=N/CCSCc1nc[nH]c1C)NC#N [CIMETIDINE] , give the reported half-life.
2.2

* * *

- experimental-details: clinical
- details: human, in vivo, iv, CL
Exercise: for every item that follows, state its recorded log10(clearance).
Each number you see is log10 of clearance, and the unit inside the log is mL/min/kg.

Fill in log10(clearance) for each of the 5 molecules listed.
1. CCC1=C(C)CN(C(=O)NCCc2ccc(S(=O)(=O)NC(=O)N[C@H]3CC[C@H](C)CC3)cc2)C1=O [GLIMEPIRIDE]
2. C=CC1=C(C(=O)O)N2C(=O)[C@@H](NC(=O)/C(=N\OCC(=O)O)c3csc(N)n3)[C@H]2SC1
3. CC1(C)O[C@@H]2C[C@H]3[C@@H]4CCC5=CC(=O)C=C[C@]5(C)[C@@]4(F)[C@@H](O)C[C@]3(C)[C@]2(C(=O)CO)O1 [TRIAMCINOLONE ACETONIDE]
4. CN1C(=O)C(O)N=C(c2ccccc2Cl)c2cc(Cl)ccc21 (stereo not given)
5. COc1cc(NC(C)CCCN)c2ncccc2c1 (stereo not given)

-0.30
0.00
0.97
0.60
0.76

* * *

- experimental-details: clinical
- details: human, in vivo, iv, CL
clearance vs 8 mL/min/kg: at or above is MET, below is NOT MET.

Observe how each entry below is paired with its result.
compound	label-class
Oc1ccc2c3c1O[C@H]1[C@@H](O)CC[C@@]4(O)[C@@H](C2)N(CC2CCC2)CC[C@]314 [NALBUPHINE]	MET
CC[C@H]1OC(=O)[C@H](C)C(=O)[C@H](C)[C@@H](O[C@@H]2O[C@H](C)C[C@H](N(C)C)[C@H]2O)[C@](C)(OC)C[C@@H](C)C(=O)[C@H](C)[C@H]2N(CCCCn3cnc(-c4cccnc4)c3)C(=O)O[C@]12C [TELITHROMYCIN]	MET
CCC(=O)C1(c2cccc(O)c2)CCN(C)CC1 [KETOBEMIDONE]	MET

Textbook exercise: given the entry O=C(O)CCCc1ccc(N(CCCl)CCCl)cc1 [CHLORAMBUCIL] , state whether its clearance is greater than or equal to 8 mL/min/kg.
NOT MET

Check if clearance >= 8 mL/min/kg (inclusive). Item: CCNC(=O)[C@@H]1CCCN1C(=O)[C@H](CCCNC(=N)N)NC(=O)[C@H](CC(C)C)NC(=O)[C@@H](CC(C)C)NC(=O)[C@H](Cc1ccc(O)cc1)NC(=O)[C@H](CO)NC(=O)[C@H](Cc1c[nH]c2ccccc12)NC(=O)[C@H](Cc1c[nH]cn1)NC(=O)[C@@H]1CCC(=O)N1 [LEUPROLIDE]
NOT MET

Can CSc1ccc(C(=O)c2[nH]c(=O)[nH]c2C)cc1 [ENOXIMONE] be said to have clearance at or above 8 mL/min/kg?
MET

Exam item: decide whether the reported clearance for CCc1nn(CCCN2CCN(c3cccc(Cl)c3)CC2)c(=O)n1CCOc1ccccc1 [NEFAZODONE] is at least 8 mL/min/kg.
NOT MET

* * *

- experimental-details: clinical
- details: human, in vivo, iv, CL
Threshold 2 mL/min/kg. clearance below it: true. clearance at it or above: false.

Here's an entry: "Cn1cc(NC(=O)Nc2cc(C(=O)Nc3cc(C(=O)Nc4ccc5cc(S(=O)(=O)O)cc(S(=O)(=O)O)c5c4)n(C)c3)n(C)c2)cc1C(=O)Nc1cc(C(=O)Nc2ccc3cc(S(=O)(=O)O)cc(S(=O)(=O)O)c3c2)n(C)c1" . Is its clearance below 2 mL/min/kg?
true

Hello, I'm reviewing records and need to know if clearance of COc1ccccc1Oc1c(NS(=O)(=O)c2ccc(C(C)C)cn2)nc(-c2ccnc(-c3nnn[nH]3)c2)nc1OCCO [TEZOSENTAN] is below 2 mL/min/kg. Could you check?
false

Field: below-cutoff. Rule: recorded clearance strictly less than 2 mL/min/kg. Subject: CCCn1c(=O)[nH]c(=O)c2[nH]cnc21 [ENPROFYLLINE]
false

* * *

- experimental-details: clinical
- details: human, in vivo, iv, t1/2
Give half-life for every item shown.
Give bare numbers, in h.

compound	reported-value
CN[C@@H]1[C@H](O)[C@H](NC)[C@H]2O[C@@]3(O)C(=O)C[C@@H](C)O[C@H]3O[C@@H]2[C@H]1O [SPECTINOMYCIN]	1.8
COc1ccc2c3c1O[C@H]1[C@@H](O)C=C[C@H]4[C@@H](C2)N(C)CC[C@@]341 [CODEINE]	4
COc1cc([C@@H]2c3cc4c(cc3[C@@H](O[C@@H]3O[C@@H]5CO[C@@H](c6cccs6)O[C@H]5[C@H](O)[C@H]3O)[C@H]3COC(=O)[C@H]23)OCO4)cc(OC)c1O [TENIPOSIDE]	16
CCN1CCN(C(=O)N[C@@H](C(=O)N[C@@H]2C(=O)N3[C@@H]2SC(C)(C)[C@@H]3C(=O)O)c2ccccc2)C(=O)C1=O [PIPERACILLIN]	0.96
C[C@@H](O)[C@H]1C(=O)N2C(C(=O)O)=C(S[C@@H]3CN[C@H](C(=O)Nc4cccc(C(=O)O)c4)C3)[C@H](C)[C@H]12	3.8
COc1nc(N)nc2c1ncn2[C@@H]1O[C@H](CO)[C@@H](O)[C@@H]1O [NELARABINE]	0.5
COCc1c(C(C)C)nc(C(C)C)c(/C=C/[C@@H](O)C[C@@H](O)CC(=O)O)c1-c1ccc(F)cc1 [CERIVASTATIN]	1.8

Next, consider the following compound.
Param item = CCCCCC/C=C\CCCCCCCCCC(=O)N[C@H]1[C@H](OC[C@H]2O[C@H](OP(=O)(O)O)[C@H](NC(=O)CC(=O)CCCCCCCCCCC)[C@@H](OCCCCCCCCCC)[C@@H]2O)O[C@H](COC)[C@@H](OP(=O)(O)O)[C@@H]1OCC[C@@H](CCCCCCC)OC [ERITORAN] ; retrieve measured half-life.
51

* * *

- experimental-details: clinical
- details: human, in vivo, iv, Vdss
Give Vd for every item shown.
Answers are plain numbers, in L/kg.

Some solved entries appear below for comparison.
compound	unit	Vd
CCCCCCCN(CC)CCCC(O)c1ccc(NS(C)(=O)=O)cc1 (centres undefined) [IBUTILIDE]	L/kg	12
CCOC(=O)[C@@H]1C2CCC(C[C@@H]1OC(=O)c1ccccc1)N2C (some centres undefined)	L/kg	1.6
C[C@H]1O[C@@H](n2cc(F)c(=O)[nH]c2=O)[C@H](O)[C@@H]1O	L/kg	0.28
CNC1=Nc2ccc(Cl)cc2C(c2ccccc2)=[N+]([O-])C1 [CHLORDIAZEPOXIDE]	L/kg	0.25
CCN(CC)CCS(=O)(=O)[C@@H]1CCN2C(=O)c3coc(n3)CC(=O)C[C@H](O)/C=C(C)/C=C/CNC(=O)/C=C/[C@@H](C)[C@@H](C(C)C)OC(=O)[C@@H]12	L/kg	0.39
CN1CCc2cccc3c2[C@H]1Cc1ccc(O)c(O)c1-3	L/kg	1.6
CO[C@H]1C[C@@H]2CC[C@@H](C)[C@@](O)(O2)C(=O)C(=O)N2CCCC[C@H]2C(=O)O[C@H]([C@H](C)C[C@@H]2CC[C@H](n3cnnn3)[C@H](OC)C2)CC(=O)[C@H](C)/C=C(\C)[C@@H](O)[C@@H](OC)C(=O)[C@H](C)C[C@H](C)/C=C/C=C/C=C/1C	L/kg	1.3
C[C@@H]([C@@H](O)c1ccc(O)cc1)N1CCC(O)(c2ccccc2)CC1	L/kg	4.4
Nc1nc2c(c(=O)[nH]1)N(C=O)C(CNc1ccc(C(=O)N[C@@H](CCC(=O)O)C(=O)O)cc1)CN2 (some centres undefined)	L/kg	0.25
CC[C@@H](CO)NCCN[C@@H](CC)CO	L/kg	1.7

Give Vd for all compounds that follow.
1. COc1ccccc1Oc1c(NS(=O)(=O)c2ccc(C(C)C)cn2)nc(-c2ccnc(-c3nnn[nH]3)c2)nc1OCCO
2. CC[N+](C)(C)c1cccc(O)c1.[Br-] [EDROPHONIUM BROMIDE]
3. NS(=O)(=O)c1cc2c(cc1C(F)(F)F)NCNS2(=O)=O [HYDROFLUMETHIAZIDE]

0.28
1.1
2.2

Provide Vd values for the following items, in order.
1. CC(C)NCC(O)COc1ccc(COCCOC(C)C)cc1 (centres undefined)
2. Cc1ccc(-c2nc3ccc(C)cn3c2CC(=O)N(C)C)cc1
3. CC(C)NCC(O)COc1ccc(CCOCC2CC2)cc1 (centres undefined)
4. CCC(C)(C)NCC(O)COc1ccccc1C(=O)CCc1ccccc1 (centres undefined)
5. CC(C)(C)NC(=O)[C@@H]1C[C@@H]2CCCC[C@@H]2CN1C[C@@H](O)[C@H](Cc1ccccc1)NC(=O)[C@H](CC(N)=O)NC(=O)c1ccc2ccccc2n1
6. CN1CC[C@H](c2c(O)cc(O)c3c(=O)cc(-c4ccccc4Cl)oc23)[C@H](O)C1

1: 2.4; 2: 0.54; 3: 4.8; 4: 1.2; 5: 3.6; 6: 1.5
